- Tested On: Torsin-1A-interacting protein 1 (Homo sapiens) (UniProt Q5JTV8)
- Sequence (Q5JTV8 whole entry, looked up): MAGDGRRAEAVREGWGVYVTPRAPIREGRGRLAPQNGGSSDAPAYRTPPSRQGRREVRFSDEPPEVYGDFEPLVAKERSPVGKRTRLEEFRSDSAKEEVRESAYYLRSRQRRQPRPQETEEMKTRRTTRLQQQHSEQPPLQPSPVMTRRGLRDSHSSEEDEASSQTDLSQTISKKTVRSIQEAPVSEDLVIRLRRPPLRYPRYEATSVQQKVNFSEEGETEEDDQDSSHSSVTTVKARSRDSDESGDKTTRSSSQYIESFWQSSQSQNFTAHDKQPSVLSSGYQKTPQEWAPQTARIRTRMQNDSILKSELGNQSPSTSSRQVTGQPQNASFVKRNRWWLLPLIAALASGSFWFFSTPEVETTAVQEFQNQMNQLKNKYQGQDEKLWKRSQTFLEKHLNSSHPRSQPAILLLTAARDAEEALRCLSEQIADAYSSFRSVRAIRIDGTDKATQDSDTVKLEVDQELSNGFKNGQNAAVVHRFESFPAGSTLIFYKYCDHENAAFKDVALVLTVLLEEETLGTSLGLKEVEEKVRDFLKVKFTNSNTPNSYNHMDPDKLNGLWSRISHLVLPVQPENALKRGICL
- Method Summary: compound microarray binding of lysate hLAP1 – cell lysate, small-molecule microarray, COS7 lysate, 635/667 nm fluorescence, primary screen (AID 1116)
- Measurement Context: 635 nm fluorescence, higher = more signal
Heads up, the class ranges for composite z-score are low = under 0.3, intermediate = from 0.3 up to 2, high = 2 and over

{"Compound": "O=C1c2ccccc2[C@](Cc2ccccc2I)(C(=O)O)[C@H](c2ccc(CO)cc2)N1Cc1ccccc1C(F)(F)F", "Group": "low"}
{"Compound": "COCCCNC(=O)[C@]1(Cc2ccccc2N=[N+]=[N-])N=C(c2ccc(OCCCO)cc2)O[C@@H]1c1ccccc1CN=[N+]=[N-]", "Group": "intermediate"}
{"Compound": "Cc1ccc(S[C@]2(C(=O)NCCN3CCOCC3)CC(=O)N(C3CCCCC3)[C@@H]2c2ccc(CO)cc2)cc1", "Group": "intermediate"}
{"Compound": "O=C1OCCC/C=C\\[C@H]2OC34C=CCN(Cn5nnc6ccccc65)C(=O)[C@H]3N(CCCO)C(=O)[C@@H]4C12 (stereo not given in full)", "Group": "high"}
{"Compound": "O=C1O[C@@H](c2ccccc2)[C@@H](c2ccccc2)N2[C@@H](c3ccc(O)cc3)[C@]3(C(=O)Nc4ccc(C#CCCO)cc43)[C@@H](C(=O)N3CCCCCCC3)[C@H]12", "Group": "high"}
{"Compound": "C#C[C@H](O[Si](C#CCCCCCC)(C(C)C)C(C)C)c1ccccc1", "Group": "low"}

Which category fits this record: CCOC1=C2C(c3ccc(C)cc3)N(S(=O)(=O)c3ccc(C)cc3)CC2n2c(=O)n(-c3ccccc3)c(=O)n2C1 (stereo not given) intermediate

Which category fits this record: O=C1O[C@@H](c2ccccc2)[C@@H](c2ccccc2)N2[C@@H](c3ccc(O)cc3)[C@]3(C(=O)Nc4ccc(C#CCCO)cc43)[C@@H](C(=O)O)[C@H]12 intermediate

Which category fits this record: C[n+]1ccc2ccc(O)cc2c1 intermediate

Which category fits this record: CN(C)CCCC[C@@H]1NC(=O)[C@H]2C[C@@H](C(=O)NCCCCCNC(=O)CS)[C@@H](c3ccc(O)cc3)N2C1=O low

Which category fits this record: COCCOC(=O)N1C(=O)[C@@]2(c3cc(C#Cc4ccc(OC)cc4)ccc31)[C@H](C(N)=O)[C@H]1C(=O)O[C@H](c3ccccc3)[C@H](c3ccccc3)N1[C@@H]2c1ccc(O)cc1 low

Which category fits this record: CC[C@@H]1C=C(C(=O)O)[C@H](c2ccc(C(C)C)cc2)N1S(=O)(=O)c1ccc(C)cc1 high

Which category fits this record: O=C(NCC(O)CO)[C@@]1(Cc2ccccc2)N=C(c2ccc(OCCCO)cc2)O[C@H]1c1ccccc1 (stereo not given in full) high

Which category fits this record: CCOC(=O)C[C@H]1[C@H](OC(=O)c2ccccc2-c2ccccc2)[C@@H](NC(=O)c2ccc(-c3ccccc3)cc2)c2cc(OCCCO)ccc2N1C(=O)c1ccccc1 intermediate

Which category fits this record: [N-]=[N+]=Nc1ccccc1[C@H]1OC(c2ccc(OCCCO)cc2)=N[C@@]1(CCS(=O)(=O)c1ccccc1)C(=O)N1CCOCC1 high

----------
- Method Summary: budding yeast growth modifiers under rapamycin – strain BY4716, OD600, 96 h, primary screen (AID 1091); further: test concentration not given here
- Measurement Context: S. cerevisiae BY4716 + rapamycin, higher = more signal, called active from +8 up or from −8 down
Parameter: z-score
One number for each entry.

{"Compound": "COCCOC(=O)N1C(=O)[C@@]2(c3cc(C#Cc4ccc(OC)cc4)ccc31)[C@H](c1ccc(OCCO)cc1)N1[C@H](c3ccccc3)[C@H](c3ccccc3)OC(=O)[C@H]1[C@@H]2C(=O)N1CCc2cc(OC)c(OC)cc2C1", "Reading": 7.07}
{"Compound": "CC(C)CNC(=O)[C@@]1(C)c2ccccc2C(=O)N(C(C)C)[C@H]1c1ccc(CO)cc1", "Reading": 0.0297}
{"Compound": "CN(C)CCCN1C(=O)[C@@]2(c3ccc([N+](=O)[O-])cc3)CC(=O)N(C3CCCCC3)[C@@H]2c2ccc(CO)cc21", "Reading": -2.61}
{"Compound": "CCOC(=O)C=Cc1cccc(OC)c1O", "Reading": -0.346}
{"Compound": "C=C[C@H](C)[C@H](O)c1ccc(OCCO)cc1", "Reading": -0.539}
{"Compound": "O=C1OCCC=C[C@H]2OC34C=CCN(CCN5CCOCC5)C(=O)[C@H]3N(CCO)C(=O)[C@@H]4C12 (stereo partly specified)", "Reading": -0.482}
{"Compound": "O=C1NC(=O)C2C1C=CC(C(O)c1cccs1)N2Nc1ccccn1 (stereo unspecified)", "Reading": 0.206}
{"Compound": "[N-]=[N+]=NCc1ccccc1[C@H]1OC(c2ccc(OCCCO)cc2)=N[C@@]1(Cc1ccccc1)C(=O)O", "Reading": -0.759}

Each compound below has a recorded value; state its z-score.
1. C=C(CCCC)/C(=C/C[C@H](OC(C)=O)c1ccc(CO)o1)c1cc(C(=O)OC)ccc1OC
2. COc1ccc(C#Cc2ccc3c(c2)[C@]2(C(=O)N3)[C@H](C(=O)N3CCN(c4ncccn4)CC3)[C@H]3C(=O)O[C@H](c4ccccc4)[C@H](c4ccccc4)N3[C@@H]2c2ccc(O)cc2)cc1

[-0.194, 1.17]

----------
Give z-score for every item shown.
- Method Summary: compound effects on multiple myeloma cell viability – MM1S, calcein-AM fluorescence, 48 h, basal, profiling panel (AID 1165);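 further: viability of MM1S multiple myeloma cells under basal unstimulated conditions; test concentration not given here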
- Measurement Context: higher = more signal
Answers are plain numbers.

{"Compound": "C=CCNC(=O)[C@@H]1[C@H]2C(=O)O[C@H](c3ccccc3)[C@H](c3ccccc3)N2[C@H](c2ccccc2OCCO)[C@@]12C(=O)N(C(=O)OCCOC)c1ccc(C#CCC(C(=O)OC)C(=O)OC)cc12", "Reading": -0.794}
{"Compound": "CN1C(=O)C2C=CC(C(O)C(c3ccccc3)c3ccccc3)N(Nc3ccccc3)C2C1=O (configuration not stated)", "Reading": -1.34}
{"Compound": "O=C1O[C@@H](c2ccccc2)[C@@H](c2ccccc2)N2[C@@H](c3ccc(O)cc3)[C@]3(C(=O)Nc4ccccc43)[C@@H](C(=O)N3CCCCCCC3)[C@H]12", "Reading": -0.391}
{"Compound": "CN(C)CCCC[C@@H]1NC(=O)[C@@H]2C[C@H](C(=O)NCc3ccc(F)cc3)[C@H](c3cccc(OCCO)c3)N2C1=O", "Reading": 0.731}
{"Compound": "C=CCC(OC(C)=O)[C@@H]1[C@@H](N(Cc2cc3ccccc3o2)C(=O)c2ccc(C)cc2)c2cc(OCCCO)ccc2N1C(=O)c1ccc(-c2ccccc2)cc1 (some centres not stated)", "Reading": 0.217}

Each compound below has a recorded value; state its z-score.
1. C=C(C(=O)CC[C@@H](OC(=O)c1cccnc1)c1ccc(CO)o1)C(C)C
2. C=CCN1C(=O)[C@]2(Cc3ccccc31)N=C(c1ccc(OCCCO)cc1)O[C@@H]2c1ccccc1

1. -1.06
2. -0.9

----------
- Method Summary: plasmodial surface anion channel blockers, osmotic lysis – cell-based, P. falciparum Indochina, OD700, 1 h, primary screen (AID 1154)
- Measurement Context: P. falciparum Indochina infected RBC osmotic lysis, called active from +8 up or from −8 down
Calls of active or inactive are those of the source.
Give one outcome, nothing more. List: active, inactive

// below: answered compounds
{"Compound": "COCCCNC(=O)[C@@]1(Sc2ccc(C)cc2)CC(=O)N(Cc2ccccc2)[C@@H]1c1ccc(CO)cc1", "Group": "inactive"}
{"Compound": "CC(C)[C@H]1COC(=O)N1C(=O)[C@H]1[C@@H](c2ccccc2)N(c2ccccc2)O[C@@H]1C", "Group": "inactive"}
{"Compound": "CC(C)NC(=O)[C@@]1(c2ccc([N+](=O)[O-])cc2)CC(=O)N(C(C)C)[C@@H]1c1ccc(CO)cc1", "Group": "inactive"}

Returns: the outcome recorded for CCCCCCCCCCC(O)C1C=CC2C(=O)N(c3ccccc3)C(=O)C2N1Nc1ccc([N+](=O)[O-])cc1 (stereo not given) in this assay. inactive

Returns: the outcome recorded for O=C1OCCC=C[C@H]2OC34C=CCN(CCN5CCOCC5)C(=O)[C@H]3N(CCO)C(=O)[C@@H]4C12 (stereo not given in full) in this assay. inactive

Returns: the outcome recorded for CCCC[C@@H]1C[C@H]1[C@@H](NC(=O)c1ccccc1)c1ccc(-c2ccccc2)cc1 in this assay. active

Returns: the outcome recorded for COc1cc(CO)cc(I)c1O[C@H]1C=C(C(=O)NCCO)C[C@@H](N(CCc2cccc(F)c2)C(=O)CCC2CCCC2)[C@@H]1O in this assay. active

Returns: the outcome recorded for O=C1C2C=CC(C(O)c3ccccn3)N(Nc3ccccc3F)C2C(=O)N1c1ccccc1 (stereo not given) in this assay. inactive

Returns: the outcome recorded for C=CCN1C(=O)[C@]2(Cc3ccccc31)N=C(c1ccc(OCCCO)cc1)O[C@@H]2c1ccccc1 in this assay. active

Returns: the outcome recorded for Cc1ccc(S[C@]2(C(=O)NCC(F)(F)F)CC(=O)N(C3Cc4ccccc4C3)[C@@H]2c2ccc(CO)cc2I)cc1 in this assay. inactive

Returns: the outcome recorded for C=CCOC(=O)[C@H]1[C@@H]2C(=O)O[C@@H](c3ccccc3)[C@@H](c3ccccc3)N2[C@@H](c2ccc(OCCOC(=O)[C@H]3C[C@H]4C(=O)N[C@@H](CCCC[N+](C)(C)C)C(=O)N4[C@H]3c3ccc(O)cc3)cc2)[C@]12C(=O)Nc1ccccc12 in this assay. inactive
